# EC50 per entry
assaySystem: T1, human Nectin-4 extracellular antigen hNectin-4-His (human, UniProt Q96NY8 32-349)
T1 construct: C-terminal 8xHis tag included
T1 sequence: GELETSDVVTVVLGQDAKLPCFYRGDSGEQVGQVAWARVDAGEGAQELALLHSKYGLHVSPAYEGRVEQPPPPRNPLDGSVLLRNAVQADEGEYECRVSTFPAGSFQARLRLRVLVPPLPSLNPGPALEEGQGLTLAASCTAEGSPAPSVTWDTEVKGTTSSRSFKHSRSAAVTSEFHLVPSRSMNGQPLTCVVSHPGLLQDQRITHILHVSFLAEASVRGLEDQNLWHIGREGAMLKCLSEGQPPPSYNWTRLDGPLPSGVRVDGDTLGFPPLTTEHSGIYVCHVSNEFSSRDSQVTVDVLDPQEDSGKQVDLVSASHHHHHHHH
testSummary: ELISA, coated hNectin-4-His

binder | EC50
antibody 1F3-1F8 (antibody, human IgG1, kappa, V domains shown) VH: EVQLVESGGGLVQPGGSLRLSCAASGFNFGNYGMSWVRQAPGKGLEWVSRISGDGSNINYADSVKGRFTISRDNSKNTLYLQMNSLRAEDTAVYYCARAELLAFDVYTASDYWGQGTLVTVSS VL: DIQMTQSPSSLSASVGDRVTITCRASQGISSYLAWYQQKPGKAPKLLIYAASSLQSGVPSRFSGSGSGTDFTLTISSLQPEDFATYYCQQHYTTPPTFGQGTKVEIKR | 8 ng/mL
antibody 1F3-1G7 (antibody, human IgG1, kappa, V domains shown) VH: EVQLVESGGGLVQPGGSLRLSCAASGDIFSNYSMSWVRQAPGKGLEWVSGIYPSGDSRRYADSVKGRFTISRDNSKNTLYLQMNSLRAEDTAVYYCARAELLAFDVYTASDYWGQGTLVTVSS VL: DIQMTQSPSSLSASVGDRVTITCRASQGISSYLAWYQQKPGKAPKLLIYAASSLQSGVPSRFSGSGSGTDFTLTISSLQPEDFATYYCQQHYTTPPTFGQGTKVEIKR | 8 ng/mL
antibody 1G8-1G3 (antibody, human IgG1, kappa, V domains shown) VH: EVQLVESGGGLVQPGGSLRLSCAASGFNFGTYAMSWVRQAPGKGLEWVSRISGISAGTNYADSVKGRFTISRDNSKNTLYLQMNSLRAEDTAVYYCARQTEDRSYGYDLDYWGQGTLVTVSS VL: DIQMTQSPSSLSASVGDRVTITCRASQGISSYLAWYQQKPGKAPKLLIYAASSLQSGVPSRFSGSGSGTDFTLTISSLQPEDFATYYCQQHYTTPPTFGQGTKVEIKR | 4 ng/mL

Data provenance: patent US20260144882A1
